Test: chemical genetic growth profiling, strain panel (AID 1159580);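 also: tested at 20 µM; growth read once vehicle control cultures reached saturation at 30 °C; 1 = growth at the plate median or of vehicle wells; lower values mean less growth of the strain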
Conditions: S. cerevisiae deletion strains, growth OD, locus YMR125W, strain sto1, hits give low values
Screen size: about 5,500 compounds; about 2,000 (36%) were called active. Roughly 18% stayed inconclusive and do not appear here. The list shows a part of the results.
READOUT_LABEL: normalized growth

get_value(item= O=C(O)c1cc2cc(Cl)ccc2[nH]1 , readout=normalized growth) returns 0.959 (inactive)

get_value(item= COc1cc(OC)c2c(=O)c(-c3ccc4c(c3)OCO4)coc2c1 , readout=normalized growth) returns 0.989 (inactive)

get_value(item= CN1Cc2c(N)cccc2C(c2ccccc2)C1 (stereo not given) , readout=normalized growth) returns 0.995 (inactive)

get_value(item= COc1cc2c(cc1-c1coc3c4c(c(OC)cc3c1=O)OC(C)(C)C=C4)OCO2 , readout=normalized growth) returns 1.01 (inactive)

get_value(item= COc1c2c(cc3occ(-c4ccc5c(c4)OCO5)c(=O)c13)OC(C)(C)C=C2 , readout=normalized growth) returns 1.01 (inactive)

get_value(item= O=C(/C=C/C(=O)Oc1ccccc1C(=O)O)Oc1ccccc1C(=O)O , readout=normalized growth) returns 0.967 (inactive)

get_value(item= COc1ccc2c(=O)c(CC(=O)O)coc2c1 , readout=normalized growth) returns 1 (inactive)

get_value(item= Cn1nnnc1SCC1=C(C(=O)O)N2C(=O)C(NC(=O)C(OC=O)c3ccccc3)C2SC1 (stereo not given) , readout=normalized growth) returns 0.989 (inactive)

get_value(item= OC[C@@H](O)C(O[C@@H]1O[C@H](CO)[C@H](O)[C@H](O)[C@H]1O)[C@H](O)[C@@H](O)CO (stereo not given in full) , readout=normalized growth) returns 0.981 (inactive)

get_value(item= CC(C)(O)CC[C@@H](O)[C@](C)(O)C1CC[C@@]2(O)C3=CC(=O)C4C[C@@H](O)[C@@H](O)C[C@]4(C)C3CC[C@]12C (stereo not given in full) , readout=normalized growth) returns 0.983 (inactive)
